testTarget: T1, human LAG3 expressed on cells (human, UniProt P18627 23-525)
T1 construct: whole, on cells
T1 sequence (looked up): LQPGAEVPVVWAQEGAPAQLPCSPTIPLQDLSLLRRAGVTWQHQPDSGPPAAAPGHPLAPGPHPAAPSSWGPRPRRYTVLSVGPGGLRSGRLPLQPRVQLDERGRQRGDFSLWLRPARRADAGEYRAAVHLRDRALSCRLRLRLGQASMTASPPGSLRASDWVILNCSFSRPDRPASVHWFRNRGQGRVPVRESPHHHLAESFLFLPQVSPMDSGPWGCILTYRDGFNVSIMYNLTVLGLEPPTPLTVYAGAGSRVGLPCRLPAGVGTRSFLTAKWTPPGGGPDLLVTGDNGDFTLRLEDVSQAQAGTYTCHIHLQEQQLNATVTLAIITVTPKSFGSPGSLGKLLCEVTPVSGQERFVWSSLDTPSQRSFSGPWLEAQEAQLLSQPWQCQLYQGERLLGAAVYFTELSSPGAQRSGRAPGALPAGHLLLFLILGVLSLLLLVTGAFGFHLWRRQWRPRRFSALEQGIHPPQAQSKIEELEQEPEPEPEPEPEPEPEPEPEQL
test: cell ELISA, 293T-hLAG3 cells
We begin with a simple list: items and their reported EC50.
A number alone suffices; assume nM.

Known EC50 results, listed for orientation:
binder	experimentalEndpoint	unitTag	dataValue
sdAb No. 17-H2 (VHH, Modified sdAb No. 17 (CDR1 DG to EG); not shown: Fc part implied by anti-human IgG1 Fc detection) VHH: QLQLVESGGGLVQPGGSLRLSCAASGLTLEGYAIGWFRQAPGKEREGLACISGSDGSTHYLDSVKGRFTISRDNGKNTMALQMNSLQFGDTAIYYCAARRGSCSGSWTYWGQGTQVTVSS	EC50	nM	1.07
sdAb No. 27-H2 (VHH, Modified sdAb No. 27 (CDR2 DG to EG); not shown: Fc part implied by anti-human IgG1 Fc detection) VHH: QVQLVESGGGLVQPGGSLRLSCAASGFTLDYYAIGWFRQAPGKEREGVSCIRSSEGSTYYADSVKGRFTISSDNTKNTVYLQMNSLKPEDTAVYYCATDRYSDCRGPYENWGQGTQVTVSS	EC50	nM	1.55
sdAb No. 27-H1 (VHH, Modified sdAb No. 27 (CDR2 DG to DA); not shown: Fc part implied by anti-human IgG1 Fc detection) VHH: QVQLVESGGGLVQPGGSLRLSCAASGFTLDYYAIGWFRQAPGKEREGVSCIRSSDASTYYADSVKGRFTISSDNTKNTVYLQMNSLKPEDTAVYYCATDRYSDCRGPYENWGQGTQVTVSS	EC50	nM	1.4

Q. Quick one: EC50 of sdAb No. 17-H1 (VHH, Modified sdAb No. 17 (CDR1 DG to DA); not shown: Fc part implied by anti-human IgG1 Fc detection) VHH: QLQLVESGGGLVQPGGSLRLSCAASGLTLDAYAIGWFRQAPGKEREGLACISGSDGSTHYLDSVKGRFTISRDNGKNTMALQMNSLQFGDTAIYYCAARRGSCSGSWTYWGQGTQVTVSS ?
A. 1.01
